target desc: S1P1 (membranes prepared from S1P1/CHO cells) (Homo sapiens (Human), UniProt P21453)
Sequence (P21453 whole entry): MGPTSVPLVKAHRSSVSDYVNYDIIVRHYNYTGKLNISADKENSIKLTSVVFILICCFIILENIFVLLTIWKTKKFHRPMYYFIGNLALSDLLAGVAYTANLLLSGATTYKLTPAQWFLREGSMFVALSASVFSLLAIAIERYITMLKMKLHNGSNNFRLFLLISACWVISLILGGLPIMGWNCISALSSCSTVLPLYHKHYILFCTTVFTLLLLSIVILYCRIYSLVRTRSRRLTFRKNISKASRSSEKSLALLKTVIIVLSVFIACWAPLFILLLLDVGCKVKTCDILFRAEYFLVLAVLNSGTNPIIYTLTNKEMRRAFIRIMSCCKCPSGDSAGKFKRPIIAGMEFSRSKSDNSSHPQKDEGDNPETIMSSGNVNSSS
assay protocol: Receptor [35S] GTPγS binding assay (S1P1 GTPγS)
Format: biochemical
recorded conditions: phosphate examples; read-out: S1P1 GTPγS
Some molecules, each annotated with its measured EC50.

Recorded results for 5 molecules are shown here.
1) COc1ccc(CC[C@H]2CCc3cc([C@@H]4CC[C@@](N)(COP(=O)(O)O)C4)ccc3C2)cc1
10 to 100 nM
2) CCCCCCC1Cc2ccc([C@H]3CC[C@](N)(COP(=O)(O)O)C3)cc2CO1 (stereo partly drawn)
< 10 nM
3) N[C@@]1(COP(=O)(O)O)CC[C@@H](c2ccc3c(c2)CC[C@@H](CCc2ccc4ccccc4n2)C3)C1
< 10 nM
4) N[C@]1(COP(=O)(O)O)CC[C@H](c2ccc3c(c2)CC[C@@H](CSc2ccncc2)C3)C1
10 to 100 nM
5) CC(C)CSCC[C@H]1CCc2cc([C@H]3CC[C@](N)(COP(=O)(O)O)C3)ccc2C1
< 10 nM

Data request: Fill in reported EC50 for this entry: CCCCCC[C@H]1Cc2ccc([C@H]3CC[C@](N)(COP(=O)(O)O)C3)cc2CO1
Data returned: < 10 nM

Data request: Fill in reported EC50 for this entry: COc1ccc(CC[C@@H]2CCc3cc(C4CCC(N)(COP(=O)(O)O)C4)ccc3C2)cc1 (single isomer, unassigned)
Data returned: 10 to 100 nM

Data request: Fill in reported EC50 for this entry: CC(C)Oc1cccc(C[C@@H]2CCc3cc([C@H]4CC[C@](N)(COP(=O)(O)O)C4)ccc3C2)c1
Data returned: < 10 nM

Data request: Fill in reported EC50 for this entry: CCCCCC[C@H]1CCc2cc([C@H]3CC[C@](N)(COP(=O)(O)O)C3)c(C)cc2C1
Data returned: < 10 nM

Data request: Fill in reported EC50 for this entry: N[C@@]1(COP(=O)(O)O)CC[C@@H](c2ccc3c(c2)CC[C@@H](OCCOc2ccccc2)C3)C1
Data returned: < 10 nM

###

Some compounds, each annotated with its measured EC50.
target desc: S1P3 (membranes prepared from EDG3-Gal5-bla HEK293T cells) (Homo sapiens (Human))
assay protocol: Receptor [35S] GTPγS binding assay (S1P3 GTPγS)
Assay type: biochemical
recorded conditions: phosphate examples; read-out: S1P3 GTPγS

Recorded results for 3 compounds are shown here.
1) CCCC=CCOC[C@@H]1CCc2cc([C@H]3CC[C@](N)(COP(=O)(O)O)C3)ccc2C1
> 50 nM
2) CC(C)(C)CCSC[C@@H]1CCc2cc([C@H]3CC[C@](N)(COP(=O)(O)O)C3)ccc2C1
> 625 nM
3) C=CCC/C=C/[C@@H]1CCc2cc([C@H]3CC[C@](N)(COP(=O)(O)O)C3)ccc2C1
> 625 nM

Data request: Fill in reported EC50 for this entry: N[C@]1(COP(=O)(O)O)CC[C@H](c2ccc3c(c2)CC[C@@H](CSCCc2ccncc2)C3)C1
Data returned: > 625 nM

Data request: Fill in reported EC50 for this entry: N[C@@]1(COP(=O)(O)O)CC[C@@H](c2ccc3c(c2)CC[C@H](OCCOC2CCCCC2)C3)C1 (single isomer, unassigned)
Data returned: > 625 nM

Data request: Fill in reported EC50 for this entry: COc1cccc(OCC[C@@H]2CCc3cc([C@H]4CC[C@](N)(COP(=O)(O)O)C4)ccc3C2)c1
Data returned: > 625 nM

Data request: Fill in reported EC50 for this entry: COCCC[C@H]1CCc2cc([C@@H]3CC[C@@](N)(COP(=O)(O)O)C3)ccc2C1
Data returned: > 625 nM

Data request: Fill in reported EC50 for this entry: N[C@@]1(COP(=O)(O)O)CC[C@@H](c2ccc3c(c2)CC[C@H](OCCOCc2ccccc2)C3)C1
Data returned: > 625 nM

Data request: Fill in reported EC50 for this entry: CCCCOC[C@@H]1COc2cc([C@@H]3CC[C@](N)(COP(=O)(O)O)C3)ccc2O1
Data returned: > 625 nM

Data request: Fill in reported EC50 for this entry: CCCCCCN1CCc2cc([C@@H]3CC[C@](N)(COP(=O)(O)O)C3)ccc2C1=O
Data returned: > 625 nM

Data request: Fill in reported EC50 for this entry: CCCCO[C@H]1CCc2cc([C@H]3CC[C@](N)(COP(=O)(O)O)C3)ccc2C1
Data returned: > 625 nM

Data request: Fill in reported EC50 for this entry: CCCSC[C@@H]1CCc2cc([C@H]3CC[C@](N)(COP(=O)(O)O)C3)ccc2C1
Data returned: > 625 nM

Data request: Fill in reported EC50 for this entry: CC(C)c1ccccc1SC[C@@H]1CCc2cc([C@H]3CC[C@](N)(COP(=O)(O)O)C3)ccc2C1
Data returned: > 625 nM

Data request: Fill in reported EC50 for this entry: CCCCCC[C@@H]1Cc2ccc([C@H]3CC[C@](N)(COP(=O)(O)O)C3)cc2CO1
Data returned: > 625 nM

Data request: Fill in reported EC50 for this entry: CCCCN(C)C(=O)OC1CCc2cc([C@H]3CC[C@](N)(COP(=O)(O)O)C3)ccc2C1 (stereo partly drawn)
Data returned: > 625 nM

###

Some compounds, each annotated with its measured pEC50.
target desc: S1P3 (membranes prepared from EDG3-Gal5-bla HEK293T cells) (Homo sapiens (Human), UniProt Q99500)
Sequence (Q99500 whole entry): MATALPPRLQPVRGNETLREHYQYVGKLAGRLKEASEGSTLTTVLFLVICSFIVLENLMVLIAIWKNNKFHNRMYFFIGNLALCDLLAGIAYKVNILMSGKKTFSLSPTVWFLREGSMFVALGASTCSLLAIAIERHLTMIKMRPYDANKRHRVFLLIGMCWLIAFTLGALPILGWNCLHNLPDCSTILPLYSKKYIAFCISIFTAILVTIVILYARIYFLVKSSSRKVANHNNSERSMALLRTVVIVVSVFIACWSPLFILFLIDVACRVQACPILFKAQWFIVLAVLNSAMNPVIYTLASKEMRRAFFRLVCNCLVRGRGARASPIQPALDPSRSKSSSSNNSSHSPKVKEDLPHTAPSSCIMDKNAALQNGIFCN
assay protocol: Receptor [35S] GTPγS binding assay (S1P3 GTPγS)
Type: biochemical
recorded conditions: [35S]GTPγS, EDG3-Gal5-bla HEK293T cell membranes; read-out: GTPγS S1P3 EC50
pEC50: −log10 of the molar value.

Recorded results for 5 compounds are shown here.
1. COCCCCCC1CCc2cc([C@H]3CC[C@](N)(COP(=O)(O)O)C3)ccc2C1 (single isomer, unassigned) [Example 689]
< 5.70
2. CCOCCCC1CCc2cc([C@H]3CC[C@](N)(COP(=O)(O)O)C3)ccc2C1 (single isomer, unassigned) [Example 695]
< 6.20
3. COCCCCCC1CCc2cc([C@@H]3CC[C@](N)(COP(=O)(O)O)C3)ccc2C1 (single isomer, unassigned) [Example 692]
< 6.20
4. COc1cccc(OCC2CCc3cc([C@@H]4CC[C@](N)(COP(=O)(O)O)C4)ccc3C2)c1 (single isomer, unassigned) [Example 702]
< 6.20
5. CCOCCCC1CCc2cc([C@H]3CC[C@](N)(COP(=O)(O)O)C3)ccc2C1 (single isomer, unassigned) [Example 696]
< 6.00

Data request: Fill in reported pEC50 for this entry: COc1cccc(CCC2CCc3cc([C@H]4CC[C@](N)(COP(=O)(O)O)C4)ccc3C2)c1 (single isomer, unassigned) [Example 693]
Data returned: < 5.38

Data request: Fill in reported pEC50 for this entry: COc1ccccc1CCC1CCc2cc(C3CC[C@](N)(COP(=O)(O)O)C3)ccc2C1 (single isomer, unassigned) [Example 698]
Data returned: < 6.20

Data request: Fill in reported pEC50 for this entry: COc1ccccc1CC[C@@H]1CCc2cc([C@H]3CC[C@](N)(COP(=O)(O)O)C3)ccc2C1 (single isomer, unassigned) [Example 697]
Data returned: < 6.00

Data request: Fill in reported pEC50 for this entry: COc1ccccc1CC[C@@H]1CCc2cc([C@@H]3CC[C@](N)(COP(=O)(O)O)C3)ccc2C1 [Example 699]
Data returned: < 6.20

Data request: Fill in reported pEC50 for this entry: COc1cccc(CCC2CCc3cc([C@H]4CC[C@](N)(COP(=O)(O)O)C4)ccc3C2)c1 (single isomer, unassigned) [Example 694]
Data returned: < 5.90

Data request: Fill in reported pEC50 for this entry: COc1cccc(OCC2CCc3cc([C@@H]4CC[C@](N)(COP(=O)(O)O)C4)ccc3C2)c1 (single isomer, unassigned) [Example 701]
Data returned: < 5.90

###

target desc: human S1P1 (Homo sapiens (Human))
Sequence (P21453 whole entry): as the sequence (P21453 whole entry) above
assay protocol: S1P1 binding assay (33P-S1P radioligand competition, CHO cell membranes)
recorded conditions: phosphate examples; read-out: S1P1 Binding
pIC50: −log10 of the molar value.
assay metric: pIC50

Recorded results for 3 compounds are shown here.
1. CCCCCC(=O)OC1CCc2cc([C@H]3CC[C@](N)(COP(=O)(O)O)C3)ccc2C1 (stereo partly shown)
> 8.00
2. N[C@]1(COP(=O)(O)O)CC[C@H](c2ccc3c(c2)CC[C@@H](Cc2ccccc2)C3)C1
7.00 to 8.00
3. CN(C)Cc1cccc(OC[C@@H]2CCc3cc([C@H]4CC[C@](N)(COP(=O)(O)O)C4)ccc3C2)c1
> 8.00

Then this compound:
Data request: Fill in reported pIC50 for this entry: CCCCSC[C@@H]1CCc2cc([C@@H]3CC[C@](N)(COP(=O)(O)O)C3)ccc2C1
Data returned: > 8.00

Reference for the values: patent US9522888B2
